Tested on: MOLT-4
Test: NCI tumour cell line growth inhibition, 48 h
Calls of active or inactive are those of the source. No stated cut-off is given here; in the data, active = GI50 up to about 1.1 µM and inactive = higher.
Exercise: state measured GI50 for each of the compounds provided.

These solved cases illustrate the format of a correct answer.
[[record]]
compound = "COC(=O)[C@@H]1C[C@H]2[C@H](c3ccccc3Br)[C@@H](OC(C)=O)[C@@H](OCc3ccccc3)ON2O1"
measurement_type = "GI50"
value = "45.3 µM (inactive)"

[[record]]
compound = "COC(=O)CC(c1cn(S(=O)(=O)c2ccc(C)cc2)c2ccccc12)C1C[C@@H](C(=O)OC)N(C(=O)OC(C)(C)C)C1=O (some centres undefined)"
measurement_type = "GI50"
value = "3.91 µM (inactive)"

[[record]]
compound = "NC(=O)c1cc2cc(Cl)cc(Cl)c2o/c1=N\\c1ccc(F)cc1"
measurement_type = "GI50"
value = "12.5 µM (inactive)"

[[record]]
compound = "CS(=O)(=O)OCCN(CCOS(C)(=O)=O)c1ccc(/C=N/N=c2/nc[nH]c3nc[nH]c23)cc1"
measurement_type = "GI50"
value = "4.84 µM (inactive)"

[[record]]
compound = "CCC(CCC(C)C1CCC2C3CC=C4CC(OC5OC(CO)C(O)C(O)C5O)CCC4(C)C3CCC12C)C(C)C (centres undefined)"
measurement_type = "GI50"
value = "> 100 µM (inactive)"

[[record]]
compound = "CNS(=O)(=O)NNS(=O)(=O)c1cccc([N+](=O)[O-])c1"
measurement_type = "GI50"
value = "> 100 µM (inactive)"

[[record]]
compound = "O=[N+]([O-])c1ccc2sc(/C=N/c3cnccn3)cc2c1"
measurement_type = "GI50"
value = "10.7 µM (inactive)"

[[record]]
compound = "CCCN1CN(C(C(=O)N[C@@H]2C(=O)N3C(C(=O)O)=C(C)CSC23)c2ccc(O)cc2)CSC1=S (some centres undefined)"
measurement_type = "GI50"
value = "57.3 µM (inactive)"


Let us move to another entry and its GI50.
In: If you can, please state the reported GI50 value of COC(=O)c1cc(Cl)ccc1NC(=O)c1ccc([N+](=O)[O-])cc1 .
Out: 35.6 µM (inactive)

----------
Exercise: state measured GI50 for each of the compounds provided.
Tested on: UACC-257
Test: NCI tumour cell line growth inhibition, 48 h
Activity calls are given as the source filed them. No stated cut-off is given here; in the data, active = GI50 up to about 1.1 µM and inactive = higher.

[[record]]
compound = "O=C1Nc2ccc(S(=O)(=O)O)cc2/C1=C1/Nc2ccc(Br)cc2C1=O"
value = "> 100 µM (inactive)"


Dear colleague, could you send me GI50 for each of the items below? Thanks.
1. Cc1nc2nnc(C)n2c2c1C(=O)Nc1ccccc1N2
2. OCCN(CCO)c1ncnc2c1sc(=S)n2-c1ccccc1
3. COc1cccc(NC(=O)/C(CC(=O)CC(c2ccccc2)c2c(O)c3ccccc3oc2=O)=N\NC(C)(C)C)c1OC (stereo not given)
4. O=[N+]([O-])c1oc2ccc3ccccc3c2c1CCO

Out:
["> 100 µM (inactive)", "> 100 µM (inactive)", "> 100 µM (inactive)", "1.94 µM (inactive)"]

Dear colleague, could you send me GI50 for each of the items below? Thanks.
1. CC(=O)[C@@]1(O)CC[C@H]2[C@@H]3C[C@H](C)C4=CC(=O)CC[C@]4(C)[C@H]3[C@@H](O)C[C@@]21C
2. CC(C)(CN1CCOCC1)C(=O)/C=C/c1ccc(/C=C/C(=O)C(C)(C)CN2CCOCC2)cc1
3. Cc1ccc(S(=O)(=O)Nc2nnc(S(N)(=O)=O)s2)cc1
4. Nc1nc(-c2cccnc2)cc(-c2cc(-c3cccnc3)nc(N)n2)n1

Out:
["> 100 µM (inactive)", "1.99 µM (inactive)", "> 100 µM (inactive)", "> 100 µM (inactive)"]

In: Fill in the recorded GI50 for this compound, with UACC-257 as test system: Cc1ncc([N+](=O)[O-])n1CCNS(=O)(=O)CCCn1ccnc1[N+](=O)[O-]
Out: > 100 µM (inactive)
